System under test: CAAX farnesyltransferase (Rattus norvegicus, UniProt Q02293+Q04631)
Test protocol: In vitro inhibition of CAAX farnesyltransferase
Assay type: biochemical
Design: purified to homogeneity from rat brain homogenates; from tissue; host or cells: rat brain; alternatively recombinant enzyme from a baculovirus expression system
Test parameters: diastereomer B; Table D; read-out: EC50 (μM) "B"
Mark Satisfied only when EC50 stays strictly below 0.002 µM. Values equal to the cut-off are Not satisfied.

>>> label("CSCC[C@H](NC(=O)CN1C(=O)C(N(C)C(=O)[C@@H](N)CO)N=C(c2ccccc2)c2ccccc21)C(=O)O (some centres unmarked)")
"Not satisfied"
>>> label("CN(C(=O)[C@@H](N)CS)C1N=C(c2ccccc2)c2ccccc2N(CC(=O)N[C@H](C(=O)O)C2CCCCC2)C1=O (some centres unmarked)")
"Satisfied"
>>> label("COC(=O)c1cccc(CN2C(=O)C(N(C)C(=O)[C@@H](N)CSSC(C)(C)C)N=C(c3ccccc3)c3cc(Cl)ccc32)c1 (some centres unmarked)")
"Not satisfied"
>>> label("CN(C(=O)[C@@H](N)CS)C1N=C(c2ccccc2)c2cc(Cl)ccc2N(Cc2ccc(F)cc2)C1=O (some centres unmarked)")
"Satisfied"
>>> label("CCN[C@@H](CS)C(=O)N(C)C1N=C(c2ccccc2)c2ccccc2N(CC(=O)N[C@@H](CCSC)C(=O)O)C1=O (some centres unmarked)")
"Not satisfied"
>>> label("CN(C(=O)[C@@H](N)CS)C1N=C(c2ccccc2)c2cc(Cl)ccc2N(CC(=O)N[C@H](C(N)=O)C2CCCCC2)C1=O (some centres unmarked)")
"Satisfied"
>>> label("CN(C(=O)[C@@H](N)CS)C1N=C(c2ccccc2)c2cc(Cl)ccc2N(CC(=O)N[C@H](C(=O)O)C2CCCCC2)C1=O (some centres unmarked)")
"Satisfied"
>>> label("Cc1ccc(CN2C(=O)C(N(C)C(=O)[C@@H](N)CS)N=C(c3ccccc3)c3cc(Cl)ccc32)cc1 (some centres unmarked)")
"Not satisfied"
>>> label("CN(C(=O)[C@@H](N)CS)C1N=C(c2ccccc2)c2cc(Cl)ccc2N(CC(=O)N[C@@H](Cc2ccccc2)C(=O)O)C1=O (some centres unmarked)")
"Satisfied"
>>> label("CSCC[C@H](NC(=O)CN1C(=O)C(N(C)C(=O)CCS)N=C(c2ccccc2)c2ccccc21)C(=O)O (some centres unmarked)")
"Not satisfied"
>>> label("CN(C(=O)[C@@H](N)CS)C1N=C(c2ccccc2)c2ccccc2N(CC(=O)NCC(=O)O)C1=O (some centres unmarked)")
"Satisfied"
>>> label("CSCC[C@H](NC(=O)CN1C(=O)C(N(C)C(=O)[C@@H](N)CS)C=C(c2ccccc2Cl)c2cc(Cl)ccc21)C(=O)O (some centres unmarked)")
"Satisfied"
>>> label("COC(=O)[C@H](CCSC)NC(=O)CN1C(=O)C(N(C)C(=O)[C@@H](N)CS)N=C(c2ccccc2)c2ccccc21 (some centres unmarked)")
"Not satisfied"
>>> label("COC(=O)c1cccc(CN2C(=O)C(N(C)C(=O)[C@@H]3CSC(C)N3)N=C(c3ccccc3)c3cc(Cl)ccc32)c1 (some centres unmarked)")
"Not satisfied"

====

System under test: CAAX farnesyltransferase (Rattus norvegicus, UniProt Q02293+Q04631)
Test protocol: In vitro inhibition of CAAX farnesyltransferase
Type: biochemical
Set-up: purified to homogeneity from rat brain homogenates; from tissue; host or cells: rat brain; alternatively recombinant enzyme from a baculovirus expression system
Test parameters: diastereomer B; Table D; read-out: EC50 (μM) "B"
Measure name: EC50 (µM)

>>> number("CSCC[C@H](NC(=O)CN1C(=O)C(N(C)C(=O)[C@@H](N)CS)C=C(c2ccccc2F)c2cc(Cl)ccc21)C(=O)O (stereo partly drawn) [compound 80]")
0.0003
>>> number("CSCC[C@H](NC(=O)CN1C(=O)C(N(C)C(=O)[C@@H](N)CS)N=C(c2ccccc2F)c2cc(Cl)ccc21)C(=O)O (stereo partly drawn) [compound 82]")
0.001
>>> number("CCOC(=O)[C@H](CCSC)NC(=O)CN1C(=O)C(N(C)C(=O)[C@@H](N)CS)N=C(c2ccccc2)c2ccccc21 (stereo partly drawn) [compound 39]")
0.11
>>> number("CSCC[C@H](NC(=O)CN1C(=O)C(N(C)C(=O)C2CSC(C)N2)N=C(c2ccccc2)c2ccccc21)C(=O)O (stereo partly drawn) [compound 43]")
0.006
>>> number("CN(C(=O)[C@@H](N)CS)C1N=C(c2ccccc2)c2cc(Cl)ccc2N(Cc2cccc(C(F)(F)F)c2)C1=O (stereo partly drawn) [compound 103]")
0.0074
>>> number("CN(C(=O)[C@@H](N)CS)C1N=C(c2ccccc2)c2ccccc2N(CC(=O)N[C@@H](CCC(N)=O)C(=O)O)C1=O (stereo partly drawn) [compound 52]")
0.0018
>>> number("CN(C(=O)[C@@H](N)CS)C1N=C(c2ccccc2)c2cc(Cl)ccc2N(Cc2ccc(C(F)(F)F)cc2)C1=O (stereo partly drawn) [compound 106]")
0.018
>>> number("CN(C(=O)[C@@H](N)CSSC(C)(C)C)C1N=C(c2ccccc2)c2cc(Cl)ccc2N(CC(=O)N[C@@H](Cc2ccccc2)c2nnn[nH]2)C1=O (stereo partly drawn) [compound 119]")
0.017
>>> number("CCOC(=O)[C@H](CCSC)NC(=O)CN1C(=O)C(N(C)C(=O)C2CSC(C)N2)N=C(c2ccccc2)c2ccccc21 (stereo partly drawn) [compound 109]")
0.1
>>> number("CN(C(=O)[C@@H](N)CS)C1N=C(c2ccccc2)c2ccccc2N(CC(=O)N[C@@H](CCc2ccccc2)C(=O)O)C1=O (stereo partly drawn) [compound 59]")
0.0012
>>> number("COC(=O)c1cccc(CN2C(=O)C(N(C)C(=O)C(N)CS)N=C(c3ccccc3)c3ccccc32)c1 (stereo not drawn) [compound 94]")
0.0042
>>> number("CSCC[C@H](NC(=O)CN1C(=O)C(N(C)C(=O)[C@@H](N)CS)C=C(c2ccccc2)c2cc(Cl)ccc21)C(=O)O (stereo partly drawn) [compound 83]")
0.0007

====

System under test: CAAX farnesyltransferase (Rattus norvegicus, UniProt Q02293+Q04631)
Test protocol: In vitro inhibition of CAAX farnesyltransferase
Type: biochemical
Set-up: purified to homogeneity from rat brain homogenates; from tissue; host or cells: rat brain; alternatively recombinant enzyme from a baculovirus expression system
Test parameters: diastereomer A; Table D; read-out: EC50 (μM) "A"
Entries and their EC50
Measure name: EC50

>>> result("CN(C(=O)[C@@H](N)CS)C1N=C(c2ccccc2)c2ccccc2N(CC(=O)N2CCC[C@H]2C(=O)O)C1=O (stereo partly shown)")
"> 10 µM"
>>> result("CSCC[C@H](NC(=O)CN1C(=O)C(N(C)C(=O)[C@@H](N)CO)N=C(c2ccccc2)c2ccccc21)C(=O)O (stereo partly shown)")
"> 10 µM"
>>> result("CN(C(=O)[C@@H](N)CSSC(C)(C)C)C1N=C(c2ccccc2)c2cc(Cl)ccc2N(CC(=O)N[C@@H](Cc2ccccc2)C(N)=O)C1=O (stereo partly shown)")
"> 3 µM"
>>> result("CN(C(=O)[C@@H](N)CS)C1N=C(c2ccccc2)c2ccccc2N(CC(=O)N[C@@H](CCC(N)=O)C(=O)O)C1=O (stereo partly shown)")
"> 3 µM"

====

Entries and their % farnesylation "A"
System under test: CAAX farnesyltransferase (Rattus norvegicus, UniProt Q02293+Q04631)
Test protocol: In vitro farnesylation of the compound by CAAX farnesyltransferase (substrate test, thin layer chromatography)
Assay type: biochemical
Test parameters: diastereomer A; relative to tetrapeptide CVIM; 3.6 μM, 37° C., 30 min
Measure name: % farnesylation "A"

>>> result("CN(C(=O)[C@@H](N)CS)C1N=C(c2ccccc2)c2ccccc2N(CC(=O)N[C@@H](CO)C(=O)O)C1=O (stereo partly drawn)")
"< 1%"
>>> result("CC(C)C[C@H](NC(=O)CN1C(=O)C(N(C)C(=O)[C@@H](N)CS)N=C(c2ccccc2)c2ccccc21)C(=O)O (stereo partly drawn)")
"< 1%"
>>> result("CSCC[C@H](NC(=O)CN1C(=O)C(N(C)C(=O)CCS)N=C(c2ccccc2)c2ccccc21)C(=O)O (stereo partly drawn)")
"< 1%"

====

Entries and their EC50
System under test: CAAX farnesyltransferase (Rattus norvegicus, UniProt Q02293+Q04631)
Test protocol: In vitro inhibition of CAAX farnesyltransferase
Format: biochemical
Design: purified to homogeneity from rat brain homogenates; from tissue; host or cells: rat brain; alternatively recombinant enzyme from a baculovirus expression system
Test parameters: diastereomer A; Table D; read-out: EC50 (μM) "A"
Measure name: EC50 (µM)

>>> number("CN(C(=O)[C@@H](N)CS)C1N=C(c2ccccc2)c2ccccc2N(CC(=O)N[C@H](C(=O)O)C2CCCCC2)C1=O (stereo partly drawn) [compound 58]")
1.1
>>> number("CSCC[C@H](NC(=O)CN1C(=O)C(N(C)C(=O)[C@@H](N)CS)N=C(c2ccccc2)c2ccccc21)C(=O)O (stereo partly drawn) [compound 27]")
0.8
>>> number("CC(C)C[C@H](NC(=O)CN1C(=O)C(N(C)C(=O)[C@@H](N)CS)N=C(c2ccccc2)c2ccccc21)C(=O)O (stereo partly drawn) [compound 31]")
0.084
>>> number("CN(C(=O)C(N)CS)C1N=C(c2ccccc2)c2ccccc2N(Cc2cccc(C(=O)O)c2)C1=O (stereo not drawn) [compound 95]")
0.88
>>> number("CN(C(=O)C(N)CS)C1N=C(c2ccccc2)c2ccccc2N(Cc2cccc(C#N)c2)C1=O (stereo not drawn) [compound 93]")
0.82
>>> number("CSCC[C@H](NC(=O)CN1C(=O)C(N(C)C(=O)[C@@H](N)CS)CCc2ccccc21)C(=O)O (stereo partly drawn) [compound 9]")
1.2
>>> number("CSCC[C@H](NC(=O)CN1C(=O)C(N(C)C(=O)[C@@H](N)CS)N=C(c2ccccc2)c2cc(Cl)ccc21)C(=O)O (stereo partly drawn) [compound 67]")
0.31
>>> number("Cc1ccc(CN2C(=O)C(N(C)C(=O)[C@@H](N)CS)N=C(c3ccccc3)c3cc(Cl)ccc32)cc1 (stereo partly drawn) [compound 104]")
0.0048
>>> number("CN(C(=O)[C@@H](N)CS)C1N=C(c2ccccc2)c2cc(Cl)ccc2N(Cc2ccc(C#N)cc2)C1=O (stereo partly drawn) [compound 101]")
3
>>> number("CSCC[C@H](NC(=O)CN1C(=O)C(N(C)C(=O)CCS)N=C(c2ccccc2)c2ccccc21)C(=O)O (stereo partly drawn) [compound 29]")
1.8
